Target: T1, Axl protein (human, UniProt P30530 26-451)
T1 construct: extracellular domain; also called human Axl; hAxl
T1 sequence (looked up): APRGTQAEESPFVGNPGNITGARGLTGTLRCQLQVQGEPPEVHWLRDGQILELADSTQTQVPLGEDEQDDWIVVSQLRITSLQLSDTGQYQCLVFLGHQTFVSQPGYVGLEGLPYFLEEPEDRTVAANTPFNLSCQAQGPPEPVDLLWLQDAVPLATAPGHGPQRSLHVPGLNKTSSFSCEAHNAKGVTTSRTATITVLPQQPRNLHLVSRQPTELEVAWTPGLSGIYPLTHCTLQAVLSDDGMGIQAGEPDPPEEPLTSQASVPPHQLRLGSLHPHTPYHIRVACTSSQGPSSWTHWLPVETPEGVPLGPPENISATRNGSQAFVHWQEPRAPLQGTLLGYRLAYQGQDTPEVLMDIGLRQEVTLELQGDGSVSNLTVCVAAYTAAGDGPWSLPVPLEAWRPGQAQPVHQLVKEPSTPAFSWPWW
Test: ELISA, 1:3 dilution, pH 6.0 over pH 7.4
endpoint-label: Affinity ELISA CPE mutant ratio (1:3, pH 6.0/7.4) (ratio)
I only need the number, in ratio, no unit after it.

Answered examples (4):
## Input # Affinity ELISA CPE mutant ratio (1:3, pH 6.0/7.4) lookup, item HC-W110T (antibody, V domains shown) VH: EVQLVQSGAEVKKPGATVKISCKVSGYSFTGHTMNWIRQPPGKGLEWIGLIKPSNGGTSYNQKFKGRVTISADKSISTAYLQWSSLKASDTAMYYCAHGHYESYFAMDYTGQGTLVTVSS VL: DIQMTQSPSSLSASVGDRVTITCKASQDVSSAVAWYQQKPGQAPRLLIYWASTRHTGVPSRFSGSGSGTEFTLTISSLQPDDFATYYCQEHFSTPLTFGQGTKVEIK
## Output 7.47

## Input // query Affinity ELISA CPE mutant ratio (1:3, pH 6.0/7.4) value for entry HC-Y104E (antibody, V domains shown) VH: EVQLVQSGAEVKKPGATVKISCKVSGYSFTGHTMNWIRQPPGKGLEWIGLIKPSNGGTSYNQKFKGRVTISADKSISTAYLQWSSLKASDTAMYYCAHGHYESEFAMDYWGQGTLVTVSS VL: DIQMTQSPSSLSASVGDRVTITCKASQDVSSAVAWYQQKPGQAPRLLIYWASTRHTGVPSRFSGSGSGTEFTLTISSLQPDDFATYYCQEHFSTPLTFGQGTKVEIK
## Output 1.32

## Input # lookup: Affinity ELISA CPE mutant ratio (1:3, pH 6.0/7.4) of HC-P053N (antibody, V domains shown) VH: EVQLVQSGAEVKKPGATVKISCKVSGYSFTGHTMNWIRQPPGKGLEWIGLIKNSNGGTSYNQKFKGRVTISADKSISTAYLQWSSLKASDTAMYYCAHGHYESYFAMDYWGQGTLVTVSS VL: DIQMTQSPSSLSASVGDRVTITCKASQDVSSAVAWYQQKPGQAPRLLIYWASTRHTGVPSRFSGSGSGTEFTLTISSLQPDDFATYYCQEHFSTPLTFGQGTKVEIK
## Output 1.4

## Input // lookup Affinity ELISA CPE mutant ratio (1:3, pH 6.0/7.4) for HC-E102R (antibody, V domains shown) VH: EVQLVQSGAEVKKPGATVKISCKVSGYSFTGHTMNWIRQPPGKGLEWIGLIKPSNGGTSYNQKFKGRVTISADKSISTAYLQWSSLKASDTAMYYCAHGHYRSYFAMDYWGQGTLVTVSS VL: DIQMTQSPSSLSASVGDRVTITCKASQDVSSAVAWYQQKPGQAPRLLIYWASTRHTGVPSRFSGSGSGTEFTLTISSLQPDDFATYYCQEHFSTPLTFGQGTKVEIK
## Output 3.7

Turning now to a further binder:
## Input Recorded Affinity ELISA CPE mutant ratio (1:3, pH 6.0/7.4) of HC-A106G (antibody, V domains shown) VH: EVQLVQSGAEVKKPGATVKISCKVSGYSFTGHTMNWIRQPPGKGLEWIGLIKPSNGGTSYNQKFKGRVTISADKSISTAYLQWSSLKASDTAMYYCAHGHYESYFGMDYWGQGTLVTVSS VL: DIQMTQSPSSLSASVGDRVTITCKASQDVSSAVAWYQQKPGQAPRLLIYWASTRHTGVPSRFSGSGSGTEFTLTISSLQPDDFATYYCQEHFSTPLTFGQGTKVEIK , please.
## Output 1.52
